Measured values drawn from ChEMBL document CHEMBL1240410 for this set.

System: KKU-M156
ASSAY INFO: Cytotoxicity against human KKU-M156 cells at 75 uM
Assay type: functional, cell-based
Activity calls are given as the source filed them. The rule behind the calls is not given here.
MEASURED PARAMETER: Activity

Examples with their reported Activity follow.
[[record]]
compound = "C/C1=C\\CC(C)(C)[C@H](C#N)CC(=O)[C@H](C)[C@H](C#N)CC1 (racemic)"
obs_value = "inactive"

[[record]]
compound = "C/C1=C\\CC(C)(C)C(C#N)CC(=O)[C@H](C)[C@H](N(C)C)CC1 (stereo partly specified)"
obs_value = "inactive"

[[record]]
compound = "C/C1=C\\CC[C@@]2(C)O[C@H]2CC(C)(C)/C=C/C1=O (racemic)"
obs_value = "inactive"

[[record]]
compound = "C/C1=C\\CC(C)(C)/C=C/C(=O)[C@H](C)[C@H](NCc2ccccc2)CC1 (racemic)"
obs_value = "inactive"

[[record]]
compound = "CC(=O)N[C@@H]1CC[C@@]2(C)O[C@H]2CC(C)(C)/C=C/C(=O)[C@@H]1C (racemic)"
obs_value = "inactive"


Give Activity for each listed item.
1. CC(=O)N[C@@H]1CC/C(C)=C/CC(C)(C)/C=C/C(=O)[C@@H]1C (racemic)
2. CCCCN[C@@H]1CC/C(C)=C/CC(C)(C)/C=C/C(=O)[C@@H]1C (racemic)
3. C[C@H]1C(=O)/C=C/C(C)(C)C[C@@H]2O[C@]2(C)CC[C@H]1N (racemic)
4. C/C1=C\CC(C)(C)/C=C/[C@H](O)[C@@]2(C)O[C@H]2CC1 (racemic)
5. CCCCN(C(C)=O)[C@@H]1CC/C(C)=C/CC(C)(C)/C=C/C(=O)[C@@H]1C
6. C[C@H]1C(=O)/C=C/C(C)(C)C[C@@H]2O[C@]2(C)CC[C@H]1NCc1ccccc1 (racemic)
7. C/C1=C\CC(C)(C)/C=C/C(=O)/C(C)=C/CC1
8. CC(=O)N[C@@H]1CC/C(C)=C/CC(C)(C)/C=C/[C@H](O)[C@@H]1C (racemic)

Ans:
["inactive", "inactive", "inactive", "inactive", "inactive", "inactive", "inactive", "inactive"]

* * *

Tested on: KKU-M139
ASSAY INFO: Cytotoxicity against human KKU-M139 cells at 75 uM
Type: functional, cell-based
Active and inactive are the calls of the source. No cut-off for these calls is given here.
MEASURED PARAMETER: Activity

[[record]]
molecule = "CC(=O)OC1/C=C/C(C)(C)C/C=C(\\C)CC/C=C/1C (racemic)"
target_entity = "KKU-M139"
obs_value = "inactive"

[[record]]
molecule = "C/C1=C\\CC(C)(C)/C=C/C(=O)[C@H](C)[C@H](NCc2ccccc2)CC1 (racemic)"
target_entity = "KKU-M139"
obs_value = "inactive"

[[record]]
molecule = "C/C1=C\\CC(C)(C)C(C#N)CC(=O)[C@H](C)[C@H](N(C)C)CC1 (stereo partly drawn)"
target_entity = "KKU-M139"
obs_value = "inactive"


* * *

Test system: KKU-M139
ASSAY INFO: Cytotoxicity against human KKU-M139 cells at 75 uM
Assay type: functional, cell-based
The source made the active and inactive calls. No cut-off for these calls is given here.
MEASURED PARAMETER: Activity

Look over these answered cases.
[[record]]
compound = "CC(=O)N[C@@H]1CC/C(C)=C/CC(C)(C)/C=C/[C@H](O)[C@@H]1C (racemic)"
target_entity = "KKU-M139"
measured_parameter = "Activity"
obs_value = "inactive"

[[record]]
compound = "CCCCN(C(C)=O)[C@@H]1CC/C(C)=C/CC(C)(C)/C=C/C(=O)[C@@H]1C"
target_entity = "KKU-M139"
measured_parameter = "Activity"
obs_value = "inactive"

[[record]]
compound = "CC(=O)N[C@@H]1CC[C@@]2(C)O[C@H]2CC(C)(C)/C=C/C(=O)[C@@H]1C (racemic)"
target_entity = "KKU-M139"
measured_parameter = "Activity"
obs_value = "inactive"

[[record]]
compound = "CCCCN[C@@H]1CC[C@@]2(C)O[C@H]2CC(C)(C)/C=C/C(=O)[C@@H]1C (racemic)"
target_entity = "KKU-M139"
measured_parameter = "Activity"
obs_value = "inactive"


// switching to the query compound
Record summary for C/C1=C\CC(C)(C)/C=C/C(O)/C(C)=C/CC1 (racemic) : reported Activity = inactive

* * *

ASSAY INFO: Cytotoxicity against human KKU-M214 cells
Assay type: functional, cell-based
MEASURED PARAMETER: pIC50
One number for each entry, as −log10 of the molar value.

[[record]]
compound = "Cc1c2ccncc2c(C)c2c1[nH]c1ccccc12"
obs_value = 6.00

[[record]]
compound = "C/C1=C\\CC(C)(C)/C=C/C(=O)[C@H](C)[C@H](N)CC1 (racemic)"
obs_value = 4.22

[[record]]
compound = "C/C1=C\\CC[C@@]2(C)O[C@H]2CC(C)(C)/C=C/C1=O (racemic)"
obs_value = 4.28

[[record]]
compound = "CCCCN[C@@H]1CC/C(C)=C/CC(C)(C)/C=C/C(=O)[C@@H]1C (racemic)"
obs_value = 4.38

[[record]]
compound = "C/C1=C\\CC(C)(C)[C@H](C#N)CC(=O)[C@H](C)[C@H](C#N)CC1 (racemic)"
obs_value = 4.18


Hey, can you go through the list below and give me pIC50 for every item?
1. CCCCN[C@@H]1CC[C@@]2(C)O[C@H]2CC(C)(C)/C=C/C(=O)[C@@H]1C (racemic)
2. CCCCN[C@@H]1CC/C(C)=C/CC(C)(C)/C=C/[C@H](O)[C@@H]1C (racemic)

Ans:
4.29
4.79

Hey, quick one: what's pIC50 for each of these?
1. C[C@H]1C(=O)/C=C/C(C)(C)C[C@@H]2O[C@]2(C)CC[C@H]1N (racemic)
2. C/C1=C\CC(C)(C)C(C#N)CC(=O)/C(C)=C/CC1 (centres undefined)

Ans:
1. 4.74
2. 4.26

* * *

Tested on: KKU-M156
ASSAY INFO: Cytotoxicity against human KKU-M156 cells at 75 uM
Type: functional, cell-based
The source made the active and inactive calls. The rule behind the calls is not given here.
MEASURED PARAMETER: Activity

[[record]]
compound = "C/C1=C\\CC(C)(C)/C=C/C(=O)[C@H](C)[C@H](N(C)C)CC1"
measured_parameter = "Activity"
obs_value = "inactive"

[[record]]
compound = "CC(=O)OC1/C=C/C(C)(C)C/C=C(\\C)CC/C=C/1C (racemic)"
measured_parameter = "Activity"
obs_value = "inactive"

[[record]]
compound = "C/C1=C\\CC(C)(C)/C=C/C(O)/C(C)=C/CC1 (racemic)"
measured_parameter = "Activity"
obs_value = "inactive"

